Numbers sourced from patent US12662483B2.

Assay: Solubility in aqueous and biorelevant media (HPLC of supernatant)
Details: simulated gastric fluid, thermodynamic from solid
measure-name: solubility at 24 h (µg/mL)

>>> result_value("Cc1c(-c2cc(O[C@H](CO)c3ccc(F)cn3)c3c(Cl)cnn3c2)nnn1C1CCN(C#N)CC1 [Isomer 2]")
47

* * *

Experiment: Solubility in aqueous and biorelevant media (HPLC of supernatant)
Settings: acetate buffer USP, pH 4.5, aqueous buffer, thermodynamic from solid
measure-name: solubility at 24 h (µg/mL)

>>> result_value("Cc1c(-c2cc(O[C@H](CO)c3ccc(F)cn3)c3c(Cl)cnn3c2)nnn1C1CCN(C#N)CC1 [Isomer 2]")
6

* * *

Experiment: Solubility in aqueous and biorelevant media (HPLC of supernatant)
Settings: 0.01N aqueous HCl, simulated gastric fluid, thermodynamic from solid
measure-name: solubility at 24 h (µg/mL)

>>> result_value("Cc1c(-c2cc(O[C@H](CO)c3ccc(F)cn3)c3c(Cl)cnn3c2)nnn1C1CCN(C#N)CC1 [Isomer 2]")
7
